tested on: RPS6KA4(Kin.Dom.2-C-terminal); conditions: concentration: 1 μM, replicates: in singlicate; n = 1;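 further: KINOMEscan kinase panel screen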
RESULT_TYPE: %Inh (%)
Express the result in % but write the number alone.

// solved cases for %Inh follow
[
  {
    "MOLECULE": "COC(=O)c1c(-c2ccccc2)c2cc(C)ccc2c(=O)n1Cc1ccccc1",
    "%Inh, %": 0
  },
  {
    "MOLECULE": "COc1cc2ncn(-c3cc(OCc4ccncc4Br)c(C(N)=O)s3)c2cc1OC [GW854278]",
    "%Inh, %": 0
  },
  {
    "MOLECULE": "CCC(=O)c1c(-c2ccccc2)c2cc(Cl)ccc2c(=O)n1Cc1ccc(C(=O)O)cc1",
    "%Inh, %": 7
  },
  {
    "MOLECULE": "Nc1n[nH]c2ncc(-c3ccccc3)cc12 [SB-517081]",
    "%Inh, %": 0
  }
]

Item: `CCc1ccc(-c2ccc3c(c2)-c2nn(C)cc2S(=O)(=O)N3C)cc1` | %Inh: 0

Item: O=C(NCCNc1ccnc(Nc2ccc(F)cc2)n1)Nc1ccc2c(c1)OCO2 [GSK1379882] | %Inh: 0

---

# key: entry, value: %Inh
system: QSK; details: concentration: 1 μM, replicates: in singlicate; n = 1
Express the result in % but write the number alone.

[
  {
    "SMILES_STRING": "CN(C)c1cc(-c2ccc3c(N)n[nH]c3c2)nc(N)n1",
    "%Inh, %": 5
  },
  {
    "SMILES_STRING": "COc1cc(OC)cc(-c2cc3cnc(N)nc3nc2NC(=O)NC(C)(C)C)c1",
    "%Inh, %": 0
  },
  {
    "SMILES_STRING": "CN1C(=O)C(Nc2cc(Cl)c(O)c(Cl)c2)=C(c2ccc(Cl)cc2)C1=O",
    "%Inh, %": 0
  },
  {
    "SMILES_STRING": "Nc1nccc2scc(-c3ccc4c(c3)CCN4C(=O)Cc3ccccc3)c12",
    "%Inh, %": 0
  }
]

For the next question, use this compound.
Item: `CCC(=O)c1c(-c2ccccc2)c2cc(Cl)ccc2c(=O)n1Cc1cc(S(C)(=O)=O)n(CC(N)=O)n1` | %Inh: 0

---

test system: JAK1(JH1domain-catalytic); conditions: concentration: 1 μM, replicates: in singlicate; n = 1
# key: entry, value: %Inh
Express the result in % but write the number alone.

// solved cases for %Inh follow
[
  {
    "MOLECULE": "COc1cc2ncn(-c3cc(OCc4ccncc4Br)c(C(N)=O)s3)c2cc1OC [GW854278]",
    "READING_UNIT": "%",
    "%Inh": 0
  },
  {
    "MOLECULE": "COc1ccc(CNC(=O)NC2CCN(c3ccnc(Nc4ccc(F)cc4)n3)C2)cc1 (stereo not shown) [GSK1379706]",
    "READING_UNIT": "%",
    "%Inh": 13
  },
  {
    "MOLECULE": "CCC(=O)c1c(-c2ccccc2)c2cc(Cl)ccc2c(=O)n1Cc1cc(S(C)(=O)=O)n(CCC(C)(C)O)n1",
    "READING_UNIT": "%",
    "%Inh": 3
  }
]

For the next question, use this molecule.
Item `CCC(=O)c1c(-c2ccccc2)c2cc(Cl)ccc2c(=O)n1Cc1cc(C(=O)NC2CC2)n(C)n1` ; assay system JAK1(JH1domain-catalytic); %Inh reported as 10

---

test system: MARK3; conditions: concentration: 1 μM, replicates: in singlicate; n = 1
RESULT_TYPE: %Inh (%)
Express the result in % but write the number alone.

[
  {
    "COMPOUND": "CCC(=O)c1c(-c2ccccc2)c2cc(Cl)ccc2c(=O)n1Cc1ccc(C(=O)O)cc1",
    "SYSTEM_TESTED": "MARK3",
    "READING": 0
  }
]

Item: `CN1C(=O)C(Nc2cc(Cl)c(O)c(Cl)c2)=C(c2ccc(Cl)cc2)C1=O` | %Inh: 0

Item: `COc1ccc(-c2cc3c(C)nc(N)nc3n([C@H]3CC[C@H](OCCO)CC3)c2=O)cn1` | %Inh: 0

Item: `CCCNC(=O)Nc1ccc(Oc2ncnc3ccn(C)c23)cc1` | %Inh: 0

Item: `Cc1c(Cn2c(C)nn3c(=O)cc(N4CCO[C@H](C)C4)nc23)cccc1C(F)(F)F` | %Inh: 0

Item: `Cc1ccccc1COc1cc(-n2cnc3cc(Cl)ccc32)sc1C(N)=O` | %Inh: 14

Item: `COc1cccc(C2=C(Nc3cccc(C(=O)O)c3)C(=O)NC2=O)c1` | %Inh: 0

---

tested on: RSK4(Kin.Dom.1-N-terminal); construct: gene RPS6KA6; details: concentration: 1 μM, replicates: in singlicate; n = 1
RESULT_TYPE: %Inh (%)
Express the result in % but write the number alone.

[
  {
    "COMPOUND": "CCC(=O)c1c(-c2ccccc2)c2cc(Cl)ccc2c(=O)n1Cc1cc(S(C)(=O)=O)n(CC(F)F)n1",
    "%Inh / %": 13
  }
]

Item: FC(F)(F)c1ccc(-c2ncn(CCCN3CCOCC3)c2-c2ccncc2)cc1 [SB-217780] | %Inh: 1

Item: OCCCNc1nccc(-c2c(-c3cccc(C(F)(F)F)c3)nn3cc(C(F)(F)F)ccc23)n1 [GW630813] | %Inh: 0

---

# key: entry, value: %Inh
system: MYLK4; settings: concentration: 1 μM, replicates: in singlicate; n = 1
Express the result in % but write the number alone.

// solved cases for %Inh follow
[
  {
    "SMILES_STRING": "CN1C(=O)C(Nc2ccccc2)=C(c2ccccc2)C1=O",
    "READING": 28
  },
  {
    "SMILES_STRING": "CCC(=O)c1c(-c2ccccc2)c2cc(Cl)ccc2c(=O)n1Cc1ccc(C(=O)O)cc1",
    "READING": 0
  },
  {
    "SMILES_STRING": "CCC(=O)c1c(-c2ccccc2)c2cc(Cl)ccc2c(=O)n1Cc1cc(S(C)(=O)=O)n(CC(N)=O)n1",
    "READING": 0
  }
]

For the next question, use this compound.
Item `COc1ccc(-c2coc3ccc(-c4nnc(SCc5cccc(C#N)c5)o4)cc23)cc1` ; assay system MYLK4; %Inh reported as 0

---

tested on: AKT3; settings: concentration: 1 μM, replicates: in singlicate; n = 1
# key: entry, value: %Inh
Express the result in % but write the number alone.

[
  {
    "COMPOUND": "COc1cc2nccc(Nc3ccc(OCc4ccc(NC(C)=O)cc4)cc3)c2cc1OC.Cl [GW440135]",
    "READING_UNIT": "%",
    "%Inh": 0
  }
]

For the next question, use this compound.
Item: COc1cccc(C2=C(N(C)c3ccccc3)C(=O)NC2=O)c1 [SB-334865] | %Inh: 0

---

system: TRKB; conditions: concentration: 1 μM, replicates: in singlicate; n = 1
RESULT_TYPE: %Inh (%)
Express the result in % but write the number alone.

// solved cases for %Inh follow
[
  {
    "COMPOUND": "CCC(=O)c1c(-c2ccccc2)c2cc(Cl)ccc2c(=O)n1Cc1ccc(C(=O)O)cc1",
    "SYSTEM_TESTED": "TRKB",
    "RESULT_TYPE": "%Inh",
    "READING": 0
  },
  {
    "COMPOUND": "O=C(Nc1n[nH]c2cc(-c3ccccc3F)ccc12)C1CC1",
    "SYSTEM_TESTED": "TRKB",
    "RESULT_TYPE": "%Inh",
    "READING": 0
  },
  {
    "COMPOUND": "CCS(=O)c1ccc(-c2coc3ccc(-c4nnc(C)o4)cc23)cc1 (centres unmarked)",
    "SYSTEM_TESTED": "TRKB",
    "RESULT_TYPE": "%Inh",
    "READING": 5
  }
]

Item: `CCCC(=O)Nc1n[nH]c2ncc(-c3cccc4ccccc34)cc12` | %Inh: 0

Item: `COc1cc2ncn(-c3cc(OCc4ccncc4Br)c(C(N)=O)s3)c2cc1OC` | %Inh: 0

Item: `COc1ccc(-n2cnc3c(N)ncnc32)cc1` | %Inh: 9

Item: `COc1cc2ncn(-c3cc(OCCCc4ccccc4)c(C(N)=O)s3)c2cc1OC` | %Inh: 0

Item: `COc1cc2nccc(Nc3ccc(OCc4ccc(NC(C)=O)cc4)cc3)c2cc1OC.Cl` | %Inh: 0

---

system: ITK; conditions: concentration: 1 μM, replicates: in singlicate; n = 1
RESULT_TYPE: %Inh (%)
Express the result in % but write the number alone.

[
  {
    "SMILES_STRING": "Cc1cc(Nc2nc(-c3cccc(C)n3)nc3ccccc23)ccn1",
    "%Inh / %": 0
  },
  {
    "SMILES_STRING": "Nc1n[nH]c2ncc(-c3ccccc3)cc12",
    "%Inh / %": 19
  },
  {
    "SMILES_STRING": "CCC(=O)c1c(-c2ccccc2)c2cc(Cl)ccc2c(=O)n1Cc1cc(C(=O)NC2CC2)n(C)n1",
    "%Inh / %": 0
  }
]

Item: `O=c1cc(N2CCOCC2)nc2n(Cc3ccc(F)c(Cl)c3)ccn12` | %Inh: 1

Item: `Cc1nn2c(=O)cc(N3CCOCC3)nc2n1Cc1cccc(Cl)c1Cl` | %Inh: 14

Item: `CCC(=O)c1c(-c2ccccc2)c2cc(Cl)ccc2c(=O)n1Cc1cc(S(C)(=O)=O)n(CC(F)F)n1` | %Inh: 0

Item: `COc1cc2ncn(-c3cc(OCc4ccc(S(C)(=O)=O)cc4)c(C(N)=O)s3)c2cc1OC` | %Inh: 16

Item: `O=C(Nc1n[nH]c2nc(-c3ccccc3)c(Cl)cc12)C1CC1` | %Inh: 0
